Where do these numbers come from? They come from patent US20200339700A1.

# TARGET: T1, human CD40 (human, UniProt P25942 21-193)
# T1 construct: also called huCD40; TNFRSF5
# T1 sequence (P25942 21-193 limits assumed): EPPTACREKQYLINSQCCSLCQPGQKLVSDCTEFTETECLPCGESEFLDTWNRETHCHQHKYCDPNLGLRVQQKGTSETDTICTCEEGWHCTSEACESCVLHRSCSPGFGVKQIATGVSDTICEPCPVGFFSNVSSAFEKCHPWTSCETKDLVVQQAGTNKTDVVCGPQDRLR
# TEST PROTOCOL: ELISA
ENDPOINT LABEL: Kd (nM)
Give a bare numeral; the unit nM is implied.

Guide cases for Kd, answers given:
BINDER	Kd / nM
12D6-24 variant L5H1 (antibody, human IgG1, V domains shown) VH: QVQLVQSGAEVKKPGASVKVSCKASGYTFTGYNMNWVRQAPGQGLEWMGNIDPYYGNTNYNQKFKGRVTMTTDTSTSTAYMELRSLRSDDTAVYYCARLGLQLYALDYWGQGTTVTVSS VL: EIVMTQSPATLSVSPGERATLSCRASQSVSSNLAWYLHWYLQKPGQAPRLLIYKLTNRFFGIPARFSGSGSGTDFTLTISRVEAEDFAVYYCQQSIHVPWTFGQGTKVEIK	1.6
12D6-24 variant L5H2 (antibody, human IgG1, V domains shown) VH: QVQLVQSGAEVKKPGSSVKVSCKASGYTFTGYNMNWVRQAPGQGLEWMGNIDPYYGNTNYNQKFKGKTTLTADKSTSTAYMELSSLRSDDTAVYYCARLGLQLYALDYWGQGTLVTVSS VL: EIVMTQSPATLSVSPGERATLSCRASQSVSSNLAWYLHWYLQKPGQAPRLLIYKLTNRFFGIPARFSGSGSGTDFTLTISRVEAEDFAVYYCQQSIHVPWTFGQGTKVEIK	1.6

Turning now to a further record.
Query :: Given the entry 12D6-24 variant L1H2 (antibody, human IgG1, V domains shown) VH: QVQLVQSGAEVKKPGSSVKVSCKASGYTFTGYNMNWVRQAPGQGLEWMGNIDPYYGNTNYNQKFKGKTTLTADKSTSTAYMELSSLRSDDTAVYYCARLGLQLYALDYWGQGTLVTVSS VL: DIVMTQTPLSLPVTPGEPASISCRSSQSLVHSNANTYLHWYLQKPGQSPQLLIYKLTNRFFGVPDRFSGSGSGTDFTLKISRVEAEDVGVYYCSQSIHVPWTFGGGTKVEIK , report its measured Kd.
Result :: 0.6
